Provenance of the data: paper PMC10141620

- System: NL4-3ΔEnv-NanoLuc/MERS-CoV pseudovirus
- Assay Details: microbe, parasite or virus in culture
- Type: cell-based
- Condition Details: Middle East respiratory syndrome-related coronavirus, read-out: MERS-CoV IC50, range over both cell lines
pIC50: −log10 of the molar value.
Measured Endpoint: pIC50

Request: Please list pIC50 recorded for the compound `Cc1cc(C)c2nc3s/c(=C\c4ccc(-c5ccc(Cl)c(C(=O)O)c5)o4)c(=O)n3c2c1`
Response: 6.64 to 6.79

----------
- Test system: NL4-3ΔEnv-NanoLuc/MERS-CoV pseudovirus
- Assay Details: microbe, parasite or virus in culture
- Format: cell-based
- Condition Details: Middle East respiratory syndrome-related coronavirus, Calu-3, read-out: MERS-CoV IC50
Please go through the items and note down their IC50.
Hi! Could you send only the number? It should be in µM, unit omitted.

Request: # return recorded IC50 for input Cc1cc2nc3s/c(=C/c4ccc(-c5cccc(C(=O)O)c5)o4)c(=O)n3c2cc1C [NBCoV63]
Response: 0.22

Request: # return recorded IC50 for entry Cc1ccc2nc3s/c(=C/c4coc(-c5ccc(Cl)c(C(=O)O)c5)c4)c(=O)n3c2c1 [NBCoV35]
Response: 1.67

Request: Answer with the recorded IC50 for the molecule listed here: O=C(O)c1cc(-c2ccc(/C=c3\sc4nc(=O)c5c6c(sc5n4c3=O)CCCC6)o2)ccc1Cl [NBCoV36]
Response: 0.589

Request: Give reported IC50 value for Cc1cc(C)c2nc3s/c(=C\c4ccc(-c5ccc(Cl)c(C(=O)O)c5)o4)c(=O)n3c2c1 [NBCoV37]
Response: 0.877
